details: 323.15 K; 101 kPa; Liquid; Vibrating tube method
ENDPOINT: mass density (kg/m3)
I only need the number, in kg/m3, no unit after it.

Observe how each entry below is paired with its result.
CCOS(=O)(=O)[O-].CC[N+]1(C)CCOCC1 [4-ethyl-4-methylmorpholinium ethyl sulfate]: 1236.35
O: 987.93
CCOS(=O)(=O)[O-].CC[N+]1(C)CCCC1 [1-ethyl-1-methylpyrrolidinium ethyl sulfate]: 1170.95

Now examine the next entry.
// mass density lookup, compound = CCOS(=O)(=O)[O-].CC[N+]1(C)CCCCC1 [1-ethyl-1-methylpiperidinium ethyl sulfate] , result: 1165.73

---

Below is a list of entries, each paired with its recorded viscosity value.
details: 313.15 K; 101 kPa; Liquid; Falling or rolling sphere viscometry
Report as a plain number; the unit mPa·s is understood.

CCOS(=O)(=O)[O-].CC[N+]1(C)CCCCC1 [1-ethyl-1-methylpiperidinium ethyl sulfate]: 549.9
CCOS(=O)(=O)[O-].CC[N+]1(C)CCOCC1 [4-ethyl-4-methylmorpholinium ethyl sulfate]: 2426
O: 0.681

We now examine a further compound.
Summary for this compound, CCOS(=O)(=O)[O-].CC[N+]1(C)CCCC1 [1-ethyl-1-methylpyrrolidinium ethyl sulfate] : viscosity is 78.32

---

Catalogue of molecules with associated mass density
conditions: 338.15 K; 101 kPa; Liquid; Vibrating tube method
Quick note: give the figure in kg/m3, leave out the unit.

O: 980.3
CCOS(=O)(=O)[O-].CC[N+]1(C)CCCC1 [1-ethyl-1-methylpyrrolidinium ethyl sulfate]: 1162.91
CCOS(=O)(=O)[O-].CC[N+]1(C)CCCCC1 [1-ethyl-1-methylpiperidinium ethyl sulfate]: 1156.56

Next, consider the following molecule.
Record summary for CCOS(=O)(=O)[O-].CC[N+]1(C)CCOCC1 [4-ethyl-4-methylmorpholinium ethyl sulfate] : reported mass density = 1226.93

---

details: 313.15 K; 101 kPa; Liquid; Vibrating tube method
ENDPOINT: mass density (kg/m3)
Please state the figure in kg/m3; there is no need to write the unit.

Answered examples (3):
CCOS(=O)(=O)[O-].CC[N+]1(C)CCCC1 [1-ethyl-1-methylpyrrolidinium ethyl sulfate]: 1176.31
CCOS(=O)(=O)[O-].CC[N+]1(C)CCCCC1 [1-ethyl-1-methylpiperidinium ethyl sulfate]: 1171.79
O: 992.15

Now consider the entry below.
The reported mass density of the compound CCOS(=O)(=O)[O-].CC[N+]1(C)CCOCC1 [4-ethyl-4-methylmorpholinium ethyl sulfate] was 1242.67

---

conditions: 323.15 K; 101 kPa; Liquid; Falling or rolling sphere viscometry
± gives the expanded uncertainty stated by the source.
Entries and their measured viscosity follow.
Please provide the amount together with its unit, number first.

CCOS(=O)(=O)[O-].CC[N+]1(C)CCOCC1 [4-ethyl-4-methylmorpholinium ethyl sulfate]: 1129 ± 210 mPa·s
CCOS(=O)(=O)[O-].CC[N+]1(C)CCCCC1 [1-ethyl-1-methylpiperidinium ethyl sulfate]: 285.8 ± 48 mPa·s
CCOS(=O)(=O)[O-].CC[N+]1(C)CCCC1 [1-ethyl-1-methylpyrrolidinium ethyl sulfate]: 53.51 ± 8.6 mPa·s

Switching to the query record.
Per the record, O has viscosity of 0.593 ± 0.095 mPa·s

---

conditions: 328.15 K; 101 kPa; Liquid; Falling or rolling sphere viscometry
Numbers after ± are expanded uncertainties.
ENDPOINT: viscosity

Example compounds with recorded viscosity:
O: 0.56 ± 0.09 mPa·s
CCOS(=O)(=O)[O-].CC[N+]1(C)CCOCC1 [4-ethyl-4-methylmorpholinium ethyl sulfate]: 779.3 ± 140 mPa·s
CCOS(=O)(=O)[O-].CC[N+]1(C)CCCC1 [1-ethyl-1-methylpyrrolidinium ethyl sulfate]: 44.82 ± 7.2 mPa·s

--- query ---
# viscosity of CCOS(=O)(=O)[O-].CC[N+]1(C)CCCCC1 [1-ethyl-1-methylpiperidinium ethyl sulfate] = 212.6 ± 35 mPa·s

---

details: 343.15 K; 101 kPa; Liquid; Vibrating tube method
Numbers after ± are expanded uncertainties.
ENDPOINT: mass density
Form field: result (number plus unit)

CCOS(=O)(=O)[O-].CC[N+]1(C)CCCC1 [1-ethyl-1-methylpyrrolidinium ethyl sulfate]: 1160.23 ± 2.6 kg/m3

Sure, the documented mass density for CCOS(=O)(=O)[O-].CC[N+]1(C)CCCCC1 [1-ethyl-1-methylpiperidinium ethyl sulfate] is 1153.58 ± 2.6 kg/m3

Reported mass density for O [water] was 978.1 ± 0.2 kg/m3

// mass density lookup, compound = CCOS(=O)(=O)[O-].CC[N+]1(C)CCOCC1 [4-ethyl-4-methylmorpholinium ethyl sulfate] , result: 1223.81 ± 2.9 kg/m3

---

details: 318.15 K; 101 kPa; Liquid; Falling or rolling sphere viscometry
ENDPOINT: viscosity (mPa·s)
Supply the numeric figure in mPa·s, leaving out any unit text.

In the examples that follow, each entry is paired with its recorded viscosity.
CCOS(=O)(=O)[O-].CC[N+]1(C)CCCCC1 [1-ethyl-1-methylpiperidinium ethyl sulfate]: 391.8
CCOS(=O)(=O)[O-].CC[N+]1(C)CCOCC1 [4-ethyl-4-methylmorpholinium ethyl sulfate]: 1677
CCOS(=O)(=O)[O-].CC[N+]1(C)CCCC1 [1-ethyl-1-methylpyrrolidinium ethyl sulfate]: 64.72

Next, consider the following compound.
Reported viscosity ( O ) = 0.63

---

conditions: 328.15 K; 101 kPa; Liquid; Vibrating tube method
mass density listing for selected compounds.
Output spec: scalar in kg/m3, unitless text.

Documented mass density of CCOS(=O)(=O)[O-].CC[N+]1(C)CCOCC1 [4-ethyl-4-methylmorpholinium ethyl sulfate] : 1233.2

Form field mass density, entry CCOS(=O)(=O)[O-].CC[N+]1(C)CCCCC1 [1-ethyl-1-methylpiperidinium ethyl sulfate] : 1162.62

Per the records, this compound ( O ) has mass density equal to 985.69

Please fill in: mass density reported for CCOS(=O)(=O)[O-].CC[N+]1(C)CCCC1 [1-ethyl-1-methylpyrrolidinium ethyl sulfate] = 1168.27

---

conditions: 333.15 K; 101 kPa; Liquid; Vibrating tube method
± gives the expanded uncertainty stated by the source.
ENDPOINT: mass density

Example cases with answers are listed next.
O [water]: 983.17 ± 0.2 kg/m3
CCOS(=O)(=O)[O-].CC[N+]1(C)CCCC1 [1-ethyl-1-methylpyrrolidinium ethyl sulfate]: 1165.59 ± 2.6 kg/m3

The compound CCOS(=O)(=O)[O-].CC[N+]1(C)CCOCC1 [4-ethyl-4-methylmorpholinium ethyl sulfate] showed mass density equal to 1230.06 ± 2.9 kg/m3

mass density reported for this compound CCOS(=O)(=O)[O-].CC[N+]1(C)CCCCC1 [1-ethyl-1-methylpiperidinium ethyl sulfate] : 1159.54 ± 2.6 kg/m3

---

conditions: 333.15 K; 101 kPa; Liquid; Falling or rolling sphere viscometry
Each entry below carries its recorded viscosity.
Number in mPa·s, nothing else.

// known answers, use as guide
CCOS(=O)(=O)[O-].CC[N+]1(C)CCOCC1 [4-ethyl-4-methylmorpholinium ethyl sulfate]: 552.3
O [water]: 0.528
CCOS(=O)(=O)[O-].CC[N+]1(C)CCCC1 [1-ethyl-1-methylpyrrolidinium ethyl sulfate]: 37.95

Kindly consider the entry below.
// viscosity value for CCOS(=O)(=O)[O-].CC[N+]1(C)CCCCC1 [1-ethyl-1-methylpiperidinium ethyl sulfate] : 162.5
